Quick record of Ki values for E.coli lac z β-galactosidase (Escherichia coli, UniProt P00722).

Reference set (3 entries):
# compound, reported_metric, result
data = [
    ("CC[C@@H]1[C@H](O)[C@@H](O)[C@H](O)CN1CCCCCC(=O)OC [Compound 26]", "Ki", "> 1000 µM"),
    ("CC[C@@H]1[C@H](O)[C@@H](O)[C@H](O)CN1CCCCCC(=O)NCCc1c[nH]cn1 [Compound 28]", "Ki", "> 1000 µM"),
    ("O=C(CC[C@H]1NC[C@@H](O)[C@H](O)[C@H]1O)NCCc1c[nH]cn1 [Compound 23]", "Ki", "> 1000 µM"),
]

I'd like to know its Ki. The compound in question is CCOC(=O)CC[C@H]1NC[C@@H](O)[C@H](O)[C@H]1O [Compound 19]
> 1000 µM

----------
Protein target, amino acids: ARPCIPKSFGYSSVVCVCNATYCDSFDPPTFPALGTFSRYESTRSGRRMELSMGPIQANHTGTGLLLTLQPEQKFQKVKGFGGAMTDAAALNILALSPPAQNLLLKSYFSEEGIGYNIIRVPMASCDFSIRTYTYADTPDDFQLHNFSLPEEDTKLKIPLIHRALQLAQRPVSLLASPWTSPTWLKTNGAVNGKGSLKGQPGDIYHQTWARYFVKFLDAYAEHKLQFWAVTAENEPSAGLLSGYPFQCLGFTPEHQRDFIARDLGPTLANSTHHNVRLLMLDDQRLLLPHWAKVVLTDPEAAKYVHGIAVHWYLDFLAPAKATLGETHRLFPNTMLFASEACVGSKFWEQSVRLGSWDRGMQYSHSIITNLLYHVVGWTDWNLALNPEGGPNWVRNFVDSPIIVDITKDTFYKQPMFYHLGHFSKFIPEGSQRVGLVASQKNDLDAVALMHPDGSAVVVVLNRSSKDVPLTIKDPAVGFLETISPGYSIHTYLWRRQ
# Lookup of reported pKi keyed by entry
Schema: pKi number; meaning minus log10 of the concentration expressed in molar units.

Reference set (3 entries):
# sample_smiles, pKi
measured = [
    ("CCOC(=O)CC[C@H]1NC[C@@H](O)[C@H](O)[C@H]1O", 5.29),
    ("CC[C@@H]1[C@H](O)[C@@H](O)[C@H](O)CN1CCCCCC(=O)OC", 4.24),
    ("O=C(CC[C@H]1NC[C@@H](O)[C@H](O)[C@H]1O)NCCc1c[nH]cn1", 5.96),
]

Query compound follows.
I'd like to know its pKi. The compound in question is CC[C@@H]1[C@H](O)[C@@H](O)[C@H](O)CN1CCCCCC(=O)NCCc1c[nH]cn1
5.39
